Cited source: ChEMBL document CHEMBL3526109

# System: Plasma
# ASSAY_OVERVIEW: Drug level in Sprague-Dawley rat plasma assessed as compound formation treated with [14C]brivanib alaninate at 100 mg/kg, po administered as single dose via gavage measured after 2 hrs by HPLC analysis
# Assay type: ADME, organism-based
# PARTICULARS: in vivo
QUANTITY_KIND: Compound recovery (%)

Cc1cc2c(F)c(Oc3ncnn4cc(O[C@@H]5O[C@H](C(=O)O)[C@@H](O)[C@H](O)[C@H]5O)c(C)c34)ccc2[nH]1    6.5
Cc1cc2c(F)c(Oc3ncnn4cc(OS(=O)(=O)O)c(C)c34)ccc2[nH]1    26.8

a. Cc1c(OC[C@@H](C)O)cn2ncnc(Oc3ccc4[nH]c(CO)cc4c3F)c12
b. Cc1c(OS(=O)(=O)O)cn2ncnc(Oc3ccc4[nH]c(C(=O)O)cc4c3F)c12
c. Cc1c(OC[C@@H](C)O)cn2ncnc(Oc3ccc4[nH]c(C(=O)O)cc4c3F)c12
Arrange the 3 entries by Compound recovery so the values rise. Would you mind listing the labels in the order asked for? a, c, b

---

# Test system: Plasma
# ASSAY_OVERVIEW: Drug level in Sprague-Dawley rat plasma assessed as compound formation treated with [14C]brivanib alaninate at 100 mg/kg, po administered as single dose via gavage measured after 6 hrs by HPLC analysis
# Type: ADME, organism-based
# PARTICULARS: in vivo
QUANTITY_KIND: Compound recovery (%)

Record excerpt, results attached:
Cc1cc2c(F)c(Oc3ncnn4cc(OC[C@@H](C)O)c(C)c34)ccc2[nH]1    14.3
Cc1cc2c(F)c(Oc3ncnn4cc(OS(=O)(=O)O)c(C)c34)ccc2[nH]1    20.9
Cc1c(OC[C@@H](C)O)cn2ncnc(Oc3ccc4[nH]c(C(=O)O)cc4c3F)c12    5.3
Cc1cc2c(F)c(Oc3ncnn4cc(O[C@@H]5O[C@H](C(=O)O)[C@@H](O)[C@H](O)[C@H]5O)c(C)c34)ccc2[nH]1    9.1
Cc1c(OC[C@@H](C)OS(=O)(=O)O)cn2ncnc(Oc3ccc4[nH]c(CO)cc4c3F)c12    4.3
Cc1cc2c(F)c(Oc3ncnn4cc(O)c(C)c34)ccc2[nH]1    1.7
Cc1c(OC[C@@H](C)O)cn2ncnc(Oc3ccc4[nH]c(CO)cc4c3F)c12    1.1

A. Cc1cc2c(F)c(Oc3ncnn4cc(OC[C@@H](C)OS(=O)(=O)O)c(C)c34)ccc2[nH]1
B. Cc1cc2c(F)c(Oc3ncnn4cc(OCC(=O)O)c(C)c34)ccc2[nH]1
C. Cc1c(OS(=O)(=O)O)cn2ncnc(Oc3ccc4[nH]c(C(=O)O)cc4c3F)c12
// sort entries: Compound recovery, high to low Would you mind listing the labels in the order asked for? C, B, A

---

# System: Plasma
# ASSAY_OVERVIEW: Drug level in cynomolgus monkey plasma assessed as compound formation treated with [14C]brivanib alaninate at 10 mg/kg, po administered as single dose via gavage measured after 6 hrs by HPLC analysis
# Assay type: ADME, organism-based, Macaca fascicularis
# PARTICULARS: in vivo
QUANTITY_KIND: Compound recovery

Record excerpt, results attached:
Cc1cc2c(F)c(Oc3ncnn4cc(O)c(C)c34)ccc2[nH]1    metabolite_not_detected
Cc1cc2c(F)c(Oc3ncnn4cc(O[C@@H]5O[C@H](C(=O)O)[C@@H](O)[C@H](O)[C@H]5O)c(C)c34)ccc2[nH]1    metabolite_not_detected
Cc1c(OS(=O)(=O)O)cn2ncnc(Oc3ccc4[nH]c(C(=O)O)cc4c3F)c12    9.1%
Cc1cc2c(F)c(Oc3ncnn4cc(OC[C@@H](C)OS(=O)(=O)O)c(C)c34)ccc2[nH]1    metabolite_not_detected

Reported Compound recovery for Plasma, given Cc1cc2c(F)c(Oc3ncnn4cc(OS(=O)(=O)O)c(C)c34)ccc2[nH]1 ? 9.1%

Reported Compound recovery for Plasma, given Cc1c(OC[C@@H](C)O)cn2ncnc(Oc3ccc4[nH]c(CO)cc4c3F)c12 ? metabolite_not_detected
